Values compiled from paper PMC8843100.

Assignment: determine reported GI% at 10^−5 M for the given molecules.
- Tested on: MCF7
- ASSAY_PROTOCOL: NCI-60 single dose screen, sulforhodamine B
- Type: cell-based, human
- CONDITIONS: Breast cancer MCF7; single dose 10^−5 M
Numeric answer only, unit % assumed.

Which GI% at 10^−5 M is listed for `COc1ccc(NC(=O)CNn2c(COc3ccccc3)nc3ccccc3c2=O)cc1` ? 13.20

Which GI% at 10^−5 M is listed for `O=c1c2ccccc2nc(COc2ccccc2)n1N=CC=Cc1ccccc1` ? 16.22

Which GI% at 10^−5 M is listed for `O=C(CNn1c(COc2ccccc2)nc2ccccc2c1=O)Nc1ccc(Cl)cc1` ? 10.05

###

- Test system: SK-MEL-28
- ASSAY_PROTOCOL: NCI-60 single dose screen, sulforhodamine B
- Assay type: cell-based, human
- CONDITIONS: Melanoma SK-MEL-28; single dose 10^−5 M
- Method: In this research, all of the newly synthesised quinazolinones were subjected to in vitro anticancer screening by the National Cancer Institute (USA) against 60 different human cell lines including leukaemia, non-small cell lung cancer, colon cancer, CNS cancer, melanoma, ovarian cancer, renal cancer, prostate cancer, and breast cancer. The tested compounds were evaluated at a single dose (10^−5 M). […]
RECORDED_METRIC: GI% at 10^−5 M

Before answering, review these 4 worked examples.
compound="O=c1c2ccccc2nc(COc2ccccc2)n1N=CC=Cc1ccccc1 [Compound 6b]" assay_result="– (– means GI < 10%)"
compound="COc1cc(C=Nn2c(COc3ccccc3)nc3ccccc3c2=O)ccc1O [Compound 6a]" assay_result="– (– means GI < 10%)"
compound="O=c1c2ccccc2nc(COc2ccccc2)n1NS(=O)(=O)c1ccc(Cl)cc1 [Compound 5c]" assay_result=12.91%
compound="Cc1ccc(S(=O)(=O)Nn2c(COc3ccccc3)nc3ccccc3c2=O)cc1 [Compound 5b]" assay_result="– (– means GI < 10%)"

Please turn your attention to the following entry.
Which GI% at 10^−5 M is listed for COc1ccc(N2CCN(CC(=O)Nn3c(COc4ccccc4)nc4ccccc4c3=O)CC2)cc1 [Compound 8c] ? – (– means GI < 10%)

###

- System: RPMI-8226
- ASSAY_PROTOCOL: NCI-60 single dose screen, sulforhodamine B
- Format: cell-based, human
- CONDITIONS: Leukaemia RPMI-8226; single dose 10^−5 M
RECORDED_METRIC: GI% at 10^−5 M

substance_smiles=O=C(CNn1c(COc2ccccc2)nc2ccccc2c1=O)Nc1ccccc1 recorded_metric="GI% at 10^−5 M" assay_result="– (– means GI < 10%)"
substance_smiles=O=c1c2ccccc2nc(COc2ccccc2)n1N=CC=Cc1ccccc1 recorded_metric="GI% at 10^−5 M" assay_result=12.52%
substance_smiles=O=c1c2ccccc2nc(COc2ccccc2)n1NS(=O)(=O)c1ccccc1 recorded_metric="GI% at 10^−5 M" assay_result="– (– means GI < 10%)"
substance_smiles=COc1ccc(N2CCN(CC(=O)Nn3c(COc4ccccc4)nc4ccccc4c3=O)CC2)cc1 recorded_metric="GI% at 10^−5 M" assay_result="– (– means GI < 10%)"

Please turn your attention to the following entry.
Kindly state the measured GI% at 10^−5 M obtained for `COc1ccc(NC(=O)CNn2c(COc3ccccc3)nc3ccccc3c2=O)cc1` with RPMI-8226. – (– means GI < 10%)
